Exercise: state measured IC50, pseudovirus neutralization [NT-108] for each of the binders provided.
molecular target: SARS-CoV2 S protein on VSV pseudovirus (SARS-CoV-2, UniProt P0DTC2 14-1273); experiment: cell-based or functional assay
Return type: number; implicit unit ng/mL.

Fill in: IC50, pseudovirus neutralization [NT-108] of NT-108, human IgG2 subclass (antibody, V domains shown) VH: EVQLQQSGPGLVKPSQTLSLTCSISGDSVSSNSAAWNWIRQSPSRGLEWLGRTYYRSKWYNDYAGTVKSRIAINPDTSKNQFSLHLNSVTPEDTAVYFCARVISVAGYAFDIWGQGTMVTVSS VL: EIVLTQSPGTLSLSPGERATLSCRASQSVSSTFLAWYQQKPGQAPRLLIYGASYMATGIPDRFSGSGSGTDFTLTISRLEPEDFAVYYCQQYGSSLTFGGGTKLEIK is ___ 2

Another binder: NT-108, human IgG4 subclass (antibody, V domains shown) VH: EVQLQQSGPGLVKPSQTLSLTCSISGDSVSSNSAAWNWIRQSPSRGLEWLGRTYYRSKWYNDYAGTVKSRIAINPDTSKNQFSLHLNSVTPEDTAVYFCARVISVAGYAFDIWGQGTMVTVSS VL: EIVLTQSPGTLSLSPGERATLSCRASQSVSSTFLAWYQQKPGQAPRLLIYGASYMATGIPDRFSGSGSGTDFTLTISRLEPEDFAVYYCQQYGSSLTFGGGTKLEIK 3.1

How about this binder: NT-108 (recombinant human IgG1/kappa antibody) (antibody, V domains shown) VH: EVQLQQSGPGLVKPSQTLSLTCSISGDSVSSNSAAWNWIRQSPSRGLEWLGRTYYRSKWYNDYAGTVKSRIAINPDTSKNQFSLHLNSVTPEDTAVYFCARVISVAGYAFDIWGQGTMVTVSS VL: EIVLTQSPGTLSLSPGERATLSCRASQSVSSTFLAWYQQKPGQAPRLLIYGASYMATGIPDRFSGSGSGTDFTLTISRLEPEDFAVYYCQQYGSSLTFGGGTKLEIK 5.7

Record: NT-108, human IgG3 subclass (antibody, V domains shown) VH: EVQLQQSGPGLVKPSQTLSLTCSISGDSVSSNSAAWNWIRQSPSRGLEWLGRTYYRSKWYNDYAGTVKSRIAINPDTSKNQFSLHLNSVTPEDTAVYFCARVISVAGYAFDIWGQGTMVTVSS VL: EIVLTQSPGTLSLSPGERATLSCRASQSVSSTFLAWYQQKPGQAPRLLIYGASYMATGIPDRFSGSGSGTDFTLTISRLEPEDFAVYYCQQYGSSLTFGGGTKLEIK 1
